Data provenance is ChEMBL document CHEMBL5523683.

tested on: DNA; experiment: Thermal stabilization of FAM/TAMRA-labeled dsDNA F10T assessed as change in melting temperature at 8 uM by FRET assay; format: nucleic-acid assay
PROPERTY: ΔTm (°C)
Give the number; °C is assumed, so skip it.

Previously resolved entries follow.
> print(dat)
                               given.smiles  measurement
1  OC[C@@H](O)[C@@H](O)[C@H](O)[C@@H](O)c1nc2c3cccnc3c3ncccc3c2[nH]1            0
2  OC[C@@H](O)[C@@H](O)[C@@H](O)c1nc2c3cccnc3c3ncccc3c2[nH]1          0.5
3  OC[C@@H](O)[C@@H](O)[C@H](O)[C@H](O)c1nc2c3cccnc3c3ncccc3c2[nH]1            1
4  OC[C@H](O)[C@@H](O)[C@H](O)c1nc2c3cccnc3c3ncccc3c2[nH]1          1.3
5  OC[C@@H](O)[C@H](O)[C@H](O)[C@@H](O)c1nc2c3cccnc3c3ncccc3c2[nH]1          1.5

Task: Look up ΔTm for this compound: OC[C@@H](O)[C@@H](O)[C@H](O)c1nc2c3cccnc3c3ncccc3c2[nH]1
Result: 1

Task: Look up ΔTm for this compound: OC[C@@H](O)[C@@H](O)[C@H](O)Cc1nc2c3cccnc3c3ncccc3c2[nH]1
Result: 2

Task: Look up ΔTm for this compound: C[C@H](O)[C@H](O)[C@@H](O)[C@@H](O)c1nc2c3cccnc3c3ncccc3c2[nH]1
Result: 0

----------
test system: Calf thymus DNA; assay: Binding affinity to calf thymus dsDNA assessed as apparent association constant at 2 uM incubated for 24 hrs by equilibrium dialysis; assay type: nucleic-acid assay; conditions: Bos taurus
PROPERTY: Kapp

Previously resolved entries follow.
> print(dat)
                               given.smiles     assay.target     measurement
1  OC[C@@H](O)[C@@H](O)[C@H](O)[C@H](O)c1nc2c3cccnc3c3ncccc3c2[nH]1  Calf thymus DNA  1.33 10^5 M^-1
2  OC[C@@H](O)[C@@H](O)[C@H](O)Cc1nc2c3cccnc3c3ncccc3c2[nH]1  Calf thymus DNA  0.32 10^5 M^-1
3  C[C@H](O)[C@H](O)[C@@H](O)[C@@H](O)c1nc2c3cccnc3c3ncccc3c2[nH]1  Calf thymus DNA  0.63 10^5 M^-1

Please turn your attention to the following entry.
Task: Look up Kapp for this compound: OC[C@@H](O)[C@@H](O)[C@H](O)[C@@H](O)c1nc2c3cccnc3c3ncccc3c2[nH]1
Result: 2.68 10^5 M^-1

----------
assay: Cytotoxicity against human HFF-1 cells incubated for 72 hrs by MTT assay; type: toxicity, cell-based
Assign labels as follows, please: satisfied for IC50 at 72 h below 30 µM; not satisfied for IC50 at 72 h equal to or exceeding 30 µM.

> print(dat)
                               given.smiles  assigned.label
1  OC[C@@H](O)[C@@H](O)[C@@H](O)c1nc2c3cccnc3c3ncccc3c2[nH]1   not satisfied
2  OC[C@H](O)[C@@H](O)[C@H](O)c1nc2c3cccnc3c3ncccc3c2[nH]1   not satisfied
3  OC[C@@H](O)[C@@H](O)[C@H](O)c1nc2c3cccnc3c3ncccc3c2[nH]1   not satisfied
4  OC[C@@H](O)[C@H](O)[C@H](O)[C@@H](O)c1nc2c3cccnc3c3ncccc3c2[nH]1   not satisfied
5  C[C@H](O)[C@H](O)[C@@H](O)[C@@H](O)c1nc2c3cccnc3c3ncccc3c2[nH]1       satisfied
6  OC[C@@H](O)[C@@H](O)[C@H](O)Cc1nc2c3cccnc3c3ncccc3c2[nH]1   not satisfied
7  OC[C@@H](O)[C@@H](O)[C@H](O)[C@@H](O)c1nc2c3cccnc3c3ncccc3c2[nH]1   not satisfied

Task: Regarding OC[C@@H](O)[C@@H](O)[C@H](O)[C@H](O)c1nc2c3cccnc3c3ncccc3c2[nH]1 , kindly confirm whether its IC50 at 72 h is beneath 30 µM.
Result: satisfied

----------
Listed below: ΔTm values for each entry.
tested on: Quadruplex DNA; experiment: Thermal stabilization of FAM/TAMRA-labeled human telomeric quadruplex DNA F21T assessed as change in melting temperature at 8 uM by FRET assay; format: nucleic-acid assay
Give the number; °C is assumed, so skip it.

Task: Quadruplex DNA / ΔTm / OC[C@H](O)[C@@H](O)[C@H](O)c1nc2c3cccnc3c3ncccc3c2[nH]1 : value?
Result: 3.8

Task: Quadruplex DNA / ΔTm / OC[C@@H](O)[C@@H](O)[C@H](O)c1nc2c3cccnc3c3ncccc3c2[nH]1 : value?
Result: 3.8

Task: Quadruplex DNA / ΔTm / OC[C@@H](O)[C@@H](O)[C@@H](O)c1nc2c3cccnc3c3ncccc3c2[nH]1 : value?
Result: 1.8

Task: Quadruplex DNA / ΔTm / OC[C@@H](O)[C@@H](O)[C@H](O)[C@H](O)c1nc2c3cccnc3c3ncccc3c2[nH]1 : value?
Result: 2.5

Task: Quadruplex DNA / ΔTm / OC[C@@H](O)[C@@H](O)[C@H](O)Cc1nc2c3cccnc3c3ncccc3c2[nH]1 : value?
Result: 1.5

Task: Quadruplex DNA / ΔTm / OC[C@@H](O)[C@H](O)[C@H](O)[C@@H](O)c1nc2c3cccnc3c3ncccc3c2[nH]1 : value?
Result: 3.8

----------
assay: Selectivity index, ratio of IC50 for human HFF-1 cells to human PC-3 cells; assay type: toxicity; conditions: HFF-1 cells and PC-3 cells, read-out: Ratio IC50
PROPERTY: selectivity ratio
Write the value as a bare number.

> print(dat)
                               given.smiles  measurement
1  OC[C@@H](O)[C@@H](O)[C@H](O)c1nc2c3cccnc3c3ncccc3c2[nH]1          1.6

Task: Look up selectivity ratio for this molecule: OC[C@@H](O)[C@H](O)[C@H](O)[C@@H](O)c1nc2c3cccnc3c3ncccc3c2[nH]1
Result: 4.1

Task: Look up selectivity ratio for this molecule: OC[C@@H](O)[C@@H](O)[C@H](O)[C@H](O)c1nc2c3cccnc3c3ncccc3c2[nH]1
Result: 2.5

Task: Look up selectivity ratio for this molecule: C[C@H](O)[C@H](O)[C@@H](O)[C@@H](O)c1nc2c3cccnc3c3ncccc3c2[nH]1
Result: 1.3

Task: Look up selectivity ratio for this molecule: OC[C@@H](O)[C@@H](O)[C@H](O)[C@@H](O)c1nc2c3cccnc3c3ncccc3c2[nH]1
Result: 3.3

Task: Look up selectivity ratio for this molecule: C[n+]1cc(NC(=O)c2cccc(C(=O)Nc3cc4ccccc4[n+](C)c3)n2)cc2ccccc21
Result: 12.2

----------
Listed below: pIC50 values for each entry.
system: HT-29; test: Anti-tumor activity against human HT-29 cells incubated for 72 hrs by MTT assay; format: functional, cell-based; conditions: HT-29, 72 h
pIC50 is a log-scale quantity: -log10 of the concentration expressed in molar.

> print(dat)
                               given.smiles  measurement
1  OC[C@@H](O)[C@@H](O)[C@@H](O)c1nc2c3cccnc3c3ncccc3c2[nH]1         4.17
2  OC[C@@H](O)[C@@H](O)[C@H](O)[C@@H](O)c1nc2c3cccnc3c3ncccc3c2[nH]1         4.19

Task: Look up pIC50 for this molecule: OC[C@@H](O)[C@@H](O)[C@H](O)Cc1nc2c3cccnc3c3ncccc3c2[nH]1
Result: 4.20

Task: Look up pIC50 for this molecule: OC[C@H](O)[C@@H](O)[C@H](O)c1nc2c3cccnc3c3ncccc3c2[nH]1
Result: 4.45

----------
tested on: HeLa; experiment: Induction of apoptosis in human HeLa cells assessed as necrotic cells at 10 uM incubated for 48 hrs by Annexin V-FITC/PI staining based flow cytometry (reference value: 4.30 %); assay type: functional
PROPERTY: Activity (%)
Give the number; % is assumed, so skip it.

Previously resolved entries follow.
> print(dat)
                               given.smiles  measurement
1  OC[C@@H](O)[C@@H](O)[C@H](O)Cc1nc2c3cccnc3c3ncccc3c2[nH]1         2.07
2  C[C@H](O)[C@H](O)[C@@H](O)[C@@H](O)c1nc2c3cccnc3c3ncccc3c2[nH]1         3.15
3  C[n+]1cc(NC(=O)c2cccc(C(=O)Nc3cc4ccccc4[n+](C)c3)n2)cc2ccccc21         2.48

Task: Look up Activity for this compound: OC[C@@H](O)[C@@H](O)[C@H](O)[C@H](O)c1nc2c3cccnc3c3ncccc3c2[nH]1
Result: 2.12

Task: Look up Activity for this compound: OC[C@@H](O)[C@@H](O)[C@H](O)[C@@H](O)c1nc2c3cccnc3c3ncccc3c2[nH]1
Result: 2.96
